Readings of pIC50 for the listed molecules
biological target: E-selectin (Homo sapiens)
Sequence (P16581 22-610 limits assumed): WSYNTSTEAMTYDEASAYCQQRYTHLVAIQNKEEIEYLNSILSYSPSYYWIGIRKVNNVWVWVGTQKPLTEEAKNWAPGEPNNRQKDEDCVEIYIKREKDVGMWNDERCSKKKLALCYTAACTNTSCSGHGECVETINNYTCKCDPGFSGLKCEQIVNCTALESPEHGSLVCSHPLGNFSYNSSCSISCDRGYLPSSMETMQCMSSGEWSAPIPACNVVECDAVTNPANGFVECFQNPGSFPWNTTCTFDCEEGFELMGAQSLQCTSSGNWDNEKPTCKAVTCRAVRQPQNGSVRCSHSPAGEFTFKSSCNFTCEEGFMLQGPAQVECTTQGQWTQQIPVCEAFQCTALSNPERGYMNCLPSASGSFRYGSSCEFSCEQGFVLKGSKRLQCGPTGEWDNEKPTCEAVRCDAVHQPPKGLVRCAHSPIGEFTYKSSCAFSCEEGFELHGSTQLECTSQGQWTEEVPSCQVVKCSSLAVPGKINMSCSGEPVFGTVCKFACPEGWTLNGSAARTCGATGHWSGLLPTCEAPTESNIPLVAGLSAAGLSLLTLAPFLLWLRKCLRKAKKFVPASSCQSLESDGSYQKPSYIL
To interpret pIC50, take it as minus log10 of a concentration measured in moles per litre.

Solved cases below.
Molecule	Observed result
CCC1CC(C(=O)NCCNC(=O)c2cn(CC(CO)(COS(=O)(=O)O)COS(=O)(=O)O)nn2)C[C@@H](O[C@@H]2O[C@@H](CO)[C@H](O)C(O[C@@H](CC3CCCCC3)C(=O)N3CCC3)C2NC(C)=O)[C@@H]1O[C@@H]1OC(C)[C@@H](O)[C@H](O)C1O (some centres unmarked) [Compound 18]	6.77
CCC1CC(C(=O)NCCNC(=O)CCOCCOCCNC(=O)c2cn(C(COS(=O)(=O)O)(COS(=O)(=O)O)COS(=O)(=O)O)nn2)C[C@@H](O[C@@H]2O[C@@H](CO)[C@H](O)C(O[C@@H](CC3CCCCC3)C(=O)O)C2NC(C)=O)[C@@H]1O[C@@H]1OC(C)[C@@H](O)[C@H](O)C1O (some centres unmarked) [Compound 46]	6.72
CCC1CC(C(=O)NCCNC(=O)c2cn(CCCOS(=O)(=O)O)nn2)C[C@@H](O[C@@H]2O[C@@H](CO)[C@H](O)C(O[C@@H](CC3CCCCC3)C(=O)N3CCC3)C2NC(C)=O)[C@@H]1O[C@@H]1OC(C)[C@@H](O)[C@H](O)C1O (some centres unmarked) [Compound 19]	6.24
CCC1CC(C(=O)NCCNC(=O)[C@@H](OS(=O)(=O)O)[C@@H](COS(=O)(=O)O)OS(=O)(=O)O)C[C@@H](O[C@@H]2O[C@@H](CO)[C@H](O)C(O[C@@H](CC3CCCCC3)C(=O)O)C2NC(C)=O)[C@@H]1O[C@@H]1OC(C)[C@@H](O)[C@H](O)C1O (some centres unmarked) [Compound 24]	6.72

Now take the following molecule into account.
Field pIC50 (E-selectin (Homo sapiens)), entry CCC1CC(C(=O)NCCNC(=O)CCCC(=O)O)C[C@@H](O[C@@H]2O[C@@H](CO)[C@H](O)C(O[C@@H](CC3CCCCC3)C(=O)O)C2NC(C)=O)[C@@H]1O[C@@H]1OC(C)[C@@H](O)[C@H](O)C1O (some centres unmarked) [Compound 36] : 6.29

FYI, the data here is from patent US20240165139A1.
